Data origin: paper PMC6627609

target: LsrK (Salmonella typhimurium, UniProt Q8ZKQ6); test: biochemical; assay type: biochemical, S. typhimurium; details: 50 µM
Sequence (Q8ZKQ6 whole entry): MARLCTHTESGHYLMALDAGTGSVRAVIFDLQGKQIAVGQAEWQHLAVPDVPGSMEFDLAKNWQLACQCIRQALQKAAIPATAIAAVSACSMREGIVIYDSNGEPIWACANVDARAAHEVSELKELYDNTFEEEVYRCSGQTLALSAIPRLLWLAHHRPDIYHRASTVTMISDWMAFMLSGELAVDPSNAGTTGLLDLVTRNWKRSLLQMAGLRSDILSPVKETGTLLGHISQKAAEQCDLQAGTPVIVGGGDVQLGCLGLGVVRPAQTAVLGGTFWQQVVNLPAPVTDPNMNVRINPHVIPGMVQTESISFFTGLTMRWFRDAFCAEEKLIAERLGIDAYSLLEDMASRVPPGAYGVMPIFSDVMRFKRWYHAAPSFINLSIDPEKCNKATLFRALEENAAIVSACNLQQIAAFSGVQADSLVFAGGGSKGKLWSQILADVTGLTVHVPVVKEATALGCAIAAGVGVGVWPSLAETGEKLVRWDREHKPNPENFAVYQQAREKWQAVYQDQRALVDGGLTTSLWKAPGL
Please use satisfied for Inhibition (%) under 1 and not satisfied for everything else, ties included.

Before answering, review these 3 worked examples.
INSERT INTO assay_data (compound, measured_target, label) VALUES
  ('O=C([O-])C1=C(CSc2nnnn2CS(=O)(=O)[O-])CS[C@@H]2[C@H](NC(=O)[C@H](O)c3ccccc3)C(=O)N12.[Na+].[Na+] [CEFONICID SODIUM]', 'LsrK (Salmonella typhimurium, UniProt Q8ZKQ6)', 'satisfied'),
  ('CO/N=C(/C(=O)N[C@@H]1C(=O)N2C(C(=O)[O-])=C(CSc3nc(=O)c([O-])nn3C)CS[C@H]12)c1csc(N)n1.O.O.O.[Na+].[Na+] [CEFTRIAXONE SODIUM TRIHYDRATE]', 'LsrK (Salmonella typhimurium, UniProt Q8ZKQ6)', 'satisfied'),
  ('CNCc1ccccc1.Cl [N-METHYLBENZYLAMINE HYDROCHLORIDE]', 'LsrK (Salmonella typhimurium, UniProt Q8ZKQ6)', 'satisfied');

[Q] Strictly below 1 in Inhibition (%)? O=C(/C=C/c1ccccc1)c1ccc(O[C@@H]2O[C@H](CO)[C@@H](O)[C@H](O)[C@H]2O)cc1O [2'.4'-DIHYDROXYCHALCONE 4'-GLUCOSIDE]
[A] not satisfied

[Q] Please state whether Inhibition (%) is below 1 for O=C([O-])c1ccccc1-c1c2cc(Br)c(=O)cc-2oc2[c]([Hg+])c([O-])c(Br)cc12.[Na+].[Na+].[OH-] [MERBROMIN]
[A] not satisfied

[Q] Please state whether Inhibition (%) is below 1 for COc1ccc(-c2cc(=O)c3cc(OC)ccc3o2)cc1 [6.4'-DIMETHOXYFLAVONE]
[A] not satisfied

[Q] Record CCC(=O)OCC(=O)[C@@]1(OC(=O)CC)[C@@H](C)C[C@H]2[C@@H]3CCC4=CC(=O)C=C[C@]4(C)[C@@]3(F)[C@@H](O)C[C@@]21C [BETAMETHASONE 17.21-DIPROPIONATE] : is its Inhibition (%) strictly below 1?
[A] satisfied

[Q] Check if Inhibition (%) falls below 1 for CC1(C)C(=O)C=C[C@]2(C)[C@H]3CC[C@@]4(C)[C@H](c5ccoc5)OC(=O)[C@H]5O[C@]54[C@]3(C)C=C[C@@H]12 [7-DESACETOXY-6.7-DEHYDROGEDUNIN] .
[A] not satisfied

[Q] Inhibition (%) under 1? Item: O=C(Oc1cc(O)cc2c1C[C@@H](OC(=O)c1cc(O)c(O)c(O)c1)[C@@H](c1cc(O)c(O)c(O)c1)O2)c1cc(O)c(O)c(O)c1 [EPIGALLOCATECHIN 3.5-DIGALLATE]
[A] not satisfied
